- Subject Of Test: CXCR4 (U87.CXCR4 cells) (Homo sapiens, UniProt P61073)
- Sequence (P61073 whole entry): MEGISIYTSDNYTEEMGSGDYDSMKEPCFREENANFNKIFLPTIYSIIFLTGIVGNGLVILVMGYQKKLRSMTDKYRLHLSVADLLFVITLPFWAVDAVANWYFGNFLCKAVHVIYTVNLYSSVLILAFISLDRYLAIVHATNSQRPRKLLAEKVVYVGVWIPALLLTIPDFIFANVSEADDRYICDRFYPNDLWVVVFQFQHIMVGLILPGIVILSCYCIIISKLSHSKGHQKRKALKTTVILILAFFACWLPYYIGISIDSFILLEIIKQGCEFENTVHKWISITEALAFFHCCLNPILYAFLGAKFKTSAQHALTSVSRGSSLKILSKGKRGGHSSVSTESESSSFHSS
- Test Summary: Intracellular CXCL-12-induced calcium mobilization assay (FLIPR)
- Assay Context: CXCL-12 25-50 ng/mL, read-out: IC50 CXCL-12 Ca2+ flux U87.CXCR4+
Readout: IC50

Compound | Readout | Val
CN1CCC(n2ccnc2CN2CCCC2c2ccccn2)CC1 (stereo not shown) | IC50 | ≥ 1 µM
Cc1cccnc1C1CCCN1Cc1nccn1C(=O)N1CCN(C)CC1 (stereo not shown) | IC50 | ≥ 1 µM
Cc1cccnc1C1CCCN1Cc1nc2ccccn2c1CCC#N (stereo not shown) | IC50 | ≥ 1 µM
CN1CCN(c2cccc3[nH]c(CN4CCCC4c4nccn4C)nc23)CC1 (stereo not shown) | IC50 | ≥ 1 µM
Cc1cccnc1C1CCCN1Cc1nccn1Cc1ccccn1 (stereo not shown) | IC50 | ≥ 1 µM
Cc1cccnc1CN1CCCC1c1nc2ccccn2c1N1CCN(C)CC1 (stereo not shown) | IC50 | 1e-05 to 0.1 µM
CN1CCN(c2cccc3[nH]c(CN4CCCC4c4ncccc4Cl)nc23)CC1 (stereo not shown) | IC50 | 0.1 to 1 µM
Cc1cccnc1C1CCCN1Cc1nc2c(N3CCN(C)CC3)cccc2[nH]1 (stereo not shown) | IC50 | 1e-05 to 0.1 µM
CN1CCN(c2c(CN3CCCC3c3ccc(F)cn3)nc3ccccn23)CC1 (stereo not shown) | IC50 | 1e-05 to 0.1 µM
N#CCCc1cccc2nc(CN3CCCC3c3ccccn3)cn12 (stereo not shown) | IC50 | ≥ 1 µM

Enquiry: I'd like to know its IC50. The compound in question is Cc1cccnc1C1CCCN1Cc1nc2cccc(N3CCN(C)CC3)c2s1 (stereo not shown)
Return: ≥ 1 µM

Enquiry: Also check Cc1cccnc1C1CCCN1Cc1cn2c(C3OCC(N(C)C)CO3)cccc2n1 (stereo not shown)
Return: 0.1 to 1 µM

Enquiry: Also check c1ccc(OCc2c(CN3CCCC3c3ccccn3)nc3ccccn23)nc1 (stereo not shown)
Return: ≥ 1 µM

Enquiry: Also check CN1CCN(c2c(CN3CCCC3c3ccccn3)nc3ccccn23)CC1 (stereo not shown)
Return: 1e-05 to 0.1 µM

Enquiry: Also check CN1CCN(c2c(CN3CCCC3c3ncccc3F)nc3ccccn23)CC1 (stereo not shown)
Return: 1e-05 to 0.1 µM

Enquiry: Also check CN1CCN(c2cccc3nc(CN4CCCC4c4ncccc4Cl)c(F)n23)CC1 (stereo not shown)
Return: ≥ 1 µM

Enquiry: Also check O=C1CN(c2c(CN3CCCC3c3ccccn3)nc3ccccn23)CCN1 (stereo not shown)
Return: ≥ 1 µM

Enquiry: Also check Cc1cccnc1CN1CCCC1c1nc2ccccc2n1C1CCN(C)CC1 (stereo not shown)
Return: ≥ 1 µM

---

- Test Summary: Mouse brain uptake assay (pharmacokinetics and brain penetration after IV administration)
- Type: in vivo, Male CD1 Mice
- Assay Context: male, CD1, brain and plasma; mouse, 3 mg/kg IV, 0-1 h, 3 time points; read-out: Kp, uu (unbound brain/unbound plasma drug concentration ratio)
Readout: Kp uu

Before answering, review these 3 worked examples.
Compound | Kp uu
CN1CCN(c2c(CN3CCCC3c3nccs3)nc3ccccn23)CC1 (stereo not shown) [Compound I-70] | 1.99
CN1CCN(c2c(CN3CCCC3c3ccccn3)nc3ccc(F)cn23)CC1 (stereo not shown) [Compound I-63] | 0.48
CN1CCN(c2cccc3[nH]c(CN4CCCC4c4ncccc4Cl)nc23)CC1 (stereo not shown) [Compound I-26] | 1.11

Enquiry: I'd like to know its Kp uu. The compound in question is CN1CCN(c2c(CN3CCCC3c3ccccn3)nc3ccccn23)CC1 (stereo not shown) [Compound I-41]
Return: 0.22

---

- Test Summary: Mouse brain uptake assay (pharmacokinetics and brain penetration after IV administration)
- Format: in vivo, Male CD1 Mice
- Assay Context: male, CD1, brain and plasma; mouse, 3 mg/kg IV, 0-1 h, 3 time points; read-out: Kp (brain/plasma drug concentration ratio, AUC last(b)/AUC last(p))
- Procedure: Example 15: Pharmacokinetics and Brain Penetration Experiment to Determine Brain and Plasma Concentrations of Compounds after IV Administration to Male CD1 Mice or Male SD Rats The study design (9 animals) consisted of administrating the drug (IV: 3 mg/kg (5 mL/kg) via tail vein injection) and collecting samples at terminal bleeding for plasma and brain at 0.083, 0.5 and 1 h. […]
# cutoff 3 applies to Kp; >= gives 1, < gives 0

Compound | Label Value
CN1CCN(c2c(CN3CCCC3c3ccccn3)nc3ccc(F)cn23)CC1 (centres unmarked) | 0
CN1CCN(c2c(CN3CCCC3c3ncccc3Cl)nc3ccccn23)CC1 (centres unmarked) | 0
CN1CCN(c2c(CN3CCCC3c3ccccn3)nc3ccccn23)CC1 (centres unmarked) | 0
CN1CCN(c2c(CN3CCCC3c3ccccn3)nc3ccccn23)CC12CC2 (centres unmarked) | 1

Lab note: next compound to report on.
Enquiry: Hi, just wondering whether CN1CCN(c2c(CN3CCCC3c3nccs3)nc3ccccn23)CC1 (centres unmarked) shows Kp of 3 or higher.
Return: 0

---

# key: entry, value: Kp uu
- Test Summary: Mouse brain uptake assay (pharmacokinetics and brain penetration after IV administration)
- Assay type: in vivo, Male CD1 Mice
- Assay Context: male, CD1, brain and plasma; mouse, 3 mg/kg IV, 0-24 h, 4 time points; read-out: Kp, uu (unbound brain/unbound plasma drug concentration ratio)
Answer with the value's number alone.

Molecule | Kp uu
Cc1cccnc1C1CCCN1Cc1cn2c(N3CCN(C)C4(CC4)C3)cccc2n1 (centres unmarked) [Compound I-29] | 0.07

Please find the next molecule below.
Enquiry: I'd like to know its Kp uu. The molecule in question is Cc1cccnc1C1CCCN1Cc1nc2cccc(N3CCN(C4CC4)CC3)c2[nH]1 (centres unmarked) [Compound I-31]
Return: 5.95

---

- Test Summary: Fraction of drug unbound to plasma proteins
- Type: in vitro ADME, Mouse
- Assay Context: Table 10, mouse, read-out: Fu (p) % (fraction of drug unbound to plasma proteins)
# key: entry, value: fraction unbound
Answer with the value's number alone.

Compound | fraction unbound
Cc1cccnc1C1CCCN1Cc1nc2cccc(N3CCN(C4CC4)CC3)c2[nH]1 (centres unmarked) [Compound I-31] | 0.05

Please find the next compound below.
Enquiry: I'd like to know its fraction unbound. The compound in question is Cc1cccnc1C1CCCN1Cc1cn2c(N3CCN(C)C4(CC4)C3)cccc2n1 (centres unmarked) [Compound I-29]
Return: 0.455

---

- Test Summary: in vitro
- Assay Context: human, Caco-2, pH 7.4
# key: entry, value: Papp A→B at 90 min, 10 μM

Before answering, review these 2 worked examples.
Compound | Papp A→B at 90 min, 10 μM
Cc1cccnc1C1CCCN1Cc1nc2ccccn2c1N1CCN(C)CC1 (centres unmarked) [Compound I-40] | 0.1 to 10 ×10⁻⁶ cm/s
CN1CCC(n2c(CN3CCCC3c3ccccn3)nc3ccccc32)CC1 (centres unmarked) [Compound I-54] | 10 to 30 ×10⁻⁶ cm/s

Enquiry: I'd like to know its Papp A→B at 90 min, 10 μM. The compound in question is Cc1cccnc1CN1CCCC1c1cn2c(N3CCN(C)CC3)cccc2n1 (centres unmarked) [Compound I-103]
Return: 0.1 to 10 ×10⁻⁶ cm/s

Enquiry: Also check c1ccc(C2CCCN2Cc2ccccc2-n2cccn2)nc1 (centres unmarked) [Compound I-65]
Return: > 30 ×10⁻⁶ cm/s

Enquiry: Also check CN1CCN(c2c(CN3CCCC3c3ccccn3)nc3ccccn23)CC12CC2 (centres unmarked) [Compound I-58]
Return: 10 to 30 ×10⁻⁶ cm/s

---

- Test Summary: in vitro
- Assay Context: human, Caco-2, pH 7.4
- Method: The goal of this assay was to evaluate the intestinal absorption potential of drug candidates using Caco-2 cell lines. 1. Prewarm Prewarm HBSS Buffer in 37° C. water bath 2. Sonicate Take compounds from −20° C., sonicate for a few minutes (no less than 1 minute) • Donor solution buffer: For A-to-B Direction: HBSS buffer with 0.3% DMSO and 5 μM LY: add 150 μL DMSO and 50 μL LY (5 mM) into 50 ml HBSS buffer (pH 7.4). […]
# key: entry, value: Papp B→A at 90 min, 10 μM

Enquiry: I'd like to know its Papp B→A at 90 min, 10 μM. The compound in question is Cc1cccnc1C1CCCN1Cc1cn2c(C3OCC(N(C)C)CO3)cccc2n1 (stereo not drawn) [Compound I-99]
Return: > 30 ×10⁻⁶ cm/s

Enquiry: Also check CN1CCN(c2c(CN3CCCC3c3ncc[nH]3)nc3ccccn23)CC1 (stereo not drawn) [Compound I-68]
Return: 10 to 30 ×10⁻⁶ cm/s

Enquiry: Also check Cc1cccnc1C1CCCN1Cc1nc2c(N3CCN(C)CC3)cccc2[nH]1 (stereo not drawn) [Compound I-11]
Return: 10 to 30 ×10⁻⁶ cm/s

Enquiry: Also check Cc1cccnc1C1CCCN1Cc1nc2cccc(N3CCN(C)CC3)n2c1CO (stereo not drawn) [Compound I-8]
Return: 10 to 30 ×10⁻⁶ cm/s

Enquiry: Also check N#CCCc1c(CN2CCCC2c2ccccn2)nc2ccccn12 (stereo not drawn) [Compound I-82]
Return: > 30 ×10⁻⁶ cm/s

Enquiry: Also check CN1CCN(c2c(CN3CCCC3c3ncccc3F)nc3ccccn23)CC1 (stereo not drawn) [Compound I-60]
Return: 10 to 30 ×10⁻⁶ cm/s

Enquiry: Also check Cc1cccnc1C1CCCN1Cc1nc2cccc(N3CCN(C)CC3)n2c1C (stereo not drawn) [Compound I-46]
Return: 10 to 30 ×10⁻⁶ cm/s

Measured values drawn from patent US11332470B2 for this set.
